measured_on: UniProtKB P04585
method_description: biochemical
stated_conditions: read-out: HIV-1 Protease % Inhib, dose 30.000 uM
readout_name: inhibition at 30 µM (%)
Provide the reading as a plain figure in %.

molecule: COc1cccc(Br)c1S(=O)(=O)Nc1cccc(C(c2c(O)c3c(oc2=O)CCCCCC3)C2CC2)c1 (stereo not shown)
units_symbol: %
inhibition at 30 µM: 112

Read the entry O=c1oc2c(c(O)c1C(c1cccc(NS(=O)(=O)c3cc(C(F)(F)F)cc(C(F)(F)F)c3)c1)C1CC1)CCCCCC2 (stereo not shown) and write its reported inhibition at 30 µM.
115

Read the entry "O=c1oc2c(c(O)c1[C@H](c1cccc(NS(=O)(=O)c3ccc(F)cc3)c1)C1CC1)CCCCCC2" and write its reported inhibition at 30 µM.
109

Read the entry CC(C)(C)OC(=O)NCCC(=O)Nc1cccc(C(c2c(O)c3c(oc2=O)CCCCC3)C2CC2)c1 (stereo not shown) and write its reported inhibition at 30 µM.
96.2
